Would you kindly list yeast fitness for each of these variants?
B1: tRNA (parent)
chain: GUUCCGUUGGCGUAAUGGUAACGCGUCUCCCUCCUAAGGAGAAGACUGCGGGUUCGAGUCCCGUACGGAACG

- Variants of: B1
- Procedure details: yeast fitness relative to wild type (ratio to wild type); higher = fitter; tRNA-Arg(CCU), competitive growth, 37 C, YPD
Variants at the floor of the assay were thinned out.

Can you share its yeast fitness? I mean this variant: A36U G48C C49G
≤ 0.5

Look up yeast fitness for this variant: G50C A57G
0.789

Given U3A C22G C27G U59C C62U G68U , state its recorded yeast fitness.
≤ 0.5

Value lookup for yeast fitness; key = G10A C22U G56C A69U
≤ 0.5

# query: yeast fitness of entry U2G C33G A45G A70U
≤ 0.5

What value of yeast fitness has been recorded for this entry: A15G C24G U26A G52A
0.589

Returns the measured yeast fitness for the input variant. Input: C4G A20G C30G G58A
≤ 0.5

Which yeast fitness reading was recorded for the variant G9C C24A C62G ?
≤ 0.5

Requested read-out: yeast fitness. Entry: C22U C24U U26A U47C
≤ 0.5

Find the recorded yeast fitness belonging to C4G C30G G41C A70U and report it.
≤ 0.5

Report yeast fitness for C22G G44A please.
0.846
